# ASSAY SUMMARY: Caco-2 assay (permeability PappAB, PappBA, efflux ratio)
# Type: in vitro ADME
# CONDITION SET: human, Caco-2; apical to basolateral; 10 μM test compound, pH 7.4
Papp A→B at 90 min, 10 μM values, listed per item

C[C@H](Oc1cc(N2CCNCC23CCOC3)nc(-c2onc3c2CCC[C@@]32CCCc3sc(N)c(C#N)c32)n1)[C@@H]1CCCN1C (stereo partly drawn) :: < 2.1 ×10⁻⁶ cm/s
C[C@H](Oc1cc(-c2ccn(C[C@@H](C)O)n2)nc(-c2onc3c2CCC[C@@]32CCCc3sc(N)c(C#N)c32)n1)[C@@H]1CCCN1C :: 2 ×10⁻⁶ cm/s

// next item, Papp A→B at 90 min, 10 μM requested
// sample `C[C@H](Oc1cc(N2CC[C@@H](O)C2)nc(-c2noc3c2CCC[C@@]32CCCc3sc(N)c(C#N)c32)n1)[C@@H]1CCCN1C` , its Papp A→B at 90 min, 10 μM was < 2.9 ×10⁻⁶ cm/s

----------
# System: LOVO cells
# ASSAY SUMMARY: LOVO CTG proliferation assay (120 h) (CRC, G13D)
# Assay type: cell-based
# CONDITION SET: Homo sapiens, CTG 120 h
RECORDED METRIC: IC50 (nM)

(I) C[C@H](Oc1cc(-n2ccc(C(=O)N[C@@H]3CCOC3)n2)nc(-c2onc3c2CCC[C@@]32CCCc3sc(N)c(C#N)c32)n1)[C@@H]1CCCN1C
(II) C[C@H](Oc1cc(-c2ccn3ncnc3c2)nc(-c2onc3c2CCC[C@@]32CCCc3sc(N)c(C#N)c32)n1)[C@@H]1CCCN1C
(III) CC(=O)N1CC=C(c2cc(O[C@@H](C)[C@@H]3CCCN3C)nc(-c3noc4c3CCC[C@@]43CCCc4sc(N)c(C#N)c43)n2)CC1
[ask] Which order do these fall in by IC50? Give them lowest to highest. A complete answer lists every label in the requested sequence.
[reply] I, III, II
(I: 23 nM, III: 289 nM, II: 574 nM)

(1) C[C@H](Oc1cc(N2CCNC(C)(C)C2)nc(-c2noc3c2CCC[C@@]32CCCc3sc(N)c(C#N)c32)n1)[C@@H]1CCCN1C
(2) C[C@H](Oc1cc(-n2ccnc2Cl)nc(-c2noc3c2CCC[C@@]32CCCc3sc(N)c(C#N)c32)n1)[C@@H]1CCCN1C
[ask] Between the two listed entries 1 and 2 , which has its IC50 at the higher number? Bench note: the answer is the label of the chosen record.
[reply] 1

(A) C[C@H](Oc1cc(-n2ccc(-c3cn([C@@H]4CCOC4)nn3)n2)nc(-c2noc3c2CCC[C@@]32CCCc3sc(N)c(C#N)c32)n1)[C@@H]1CCCN1C
(B) C[C@H](NC(=O)c1ccn(-c2cc(O[C@@H](C)[C@@H]3CCCN3C)nc(-c3onc4c3CCC[C@@]43CCCc4sc(N)c(C#N)c43)n2)n1)c1ccccn1
[ask] Form: Entry with minimum IC50 (choose one): A / B # reply format: chosen label
[reply] B

----------
# EXPERIMENTAL TARGET: KRAS (G12V)::SOS1 (Homo sapiens (Human), UniProt P01116, C118S/G12V)
# Sequence (P01116 other isoform, or with tags, fused parts or gaps G12V/C118S): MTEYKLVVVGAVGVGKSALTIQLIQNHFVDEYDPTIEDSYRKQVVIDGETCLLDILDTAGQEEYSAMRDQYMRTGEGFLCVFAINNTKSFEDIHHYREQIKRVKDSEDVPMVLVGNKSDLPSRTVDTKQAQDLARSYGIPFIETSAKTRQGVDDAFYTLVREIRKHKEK
# ASSAY SUMMARY: KRAS::SOS1 AlphaScreen binding assay, KRAS G12V
RECORDED METRIC: IC50 (nM)

Below are worked cases with known answers.
C[C@H](Oc1cc(N2CC3CCC(C2)N3)nc(-c2noc3c2CCC[C@@]32CCCc3sc(N)c(C#N)c32)n1)[C@@H]1CCCN1C [II-34] :: 17
C[C@H](Oc1cc(-n2ccc(-c3cnccn3)n2)nc(-c2noc3c2CCC[C@@]32CCCc3sc(N)c(C#N)c32)n1)[C@@H]1CCCN1C [II-130] :: 2
C[C@H](Oc1cc(N2CC[C@H](N(C)C)C2)nc(-c2noc3c2CCC[C@@]32CCCc3sc(N)c(C#N)c32)n1)[C@@H]1C[C@@H](F)CN1C [II-15] :: 39

(a) C[C@H](Oc1cc(N2CCN(C)CC2)nc(-c2noc3c2CCC[C@@]32CCCc3sc(N)c(C#N)c32)n1)[C@@H]1CCCN1C [II-55]
(b) C[C@H](Oc1cc(-c2ccc(N)nc2)nc(-c2noc3c2CCC[C@@]32CCCc3sc(N)c(C#N)c32)n1)[C@@H]1CCCN1C [II-101]
[ask] Compare reported IC50 values for a and b . Which is lower? Lab log: write the label of the selected item as the result.
[reply] b
(b: 2 nM, a: 11 nM)
